# System: adenosine-sensitive receptors of thrombocytes
# Protocol: ADP-induced aggregation of thrombocytes in vitro (Born method)
# Format: cell-based, rabbit
# Settings: 10^−5 M; 3 min incubation; ADP 10^−5 M
Attribute: MA - fall of optical density of plasma, % to the standard
Test Readout: MA - fall of optical density of plasma, % to the standard (%)

Nc1ncc2c(=O)[nH][nH]c(=O)c2n1 [Compound 36]: 40.1
Nc1cnc2c(=O)[nH][nH]c(=O)c2n1.[Na] [Compound 28]: 44.2
O=c1[nH]n([C@@H]2O[C@H](CO)[C@@H](O)[C@H]2O)c(=O)c2nccc(O)c12.[Na].[Na] [Compound 4]: 46.2
Nc1cccc2c(=O)[nH][nH]c(=O)c12.[Na] [Compound 15]: 39.8
Nc1cnc2c(=O)n([C@@H]3O[C@H](CO)[C@@H](O)[C@H]3O)[nH]c(=O)c2n1.[Na] [Compound 21]: 41.8
Nc1ncnc2c(=O)n([C@@H]3O[C@H](CO)[C@@H](O)[C@H]3O)[nH]c(=O)c12.[Na] [Compound 31]: 39.9
Nc1ccnc2c(=O)n([C@@H]3O[C@H](CO)[C@@H](O)[C@H]3O)[nH]c(=O)c12 [Compound 2]: 48.2
O=c1[nH][nH]c(=O)c2ncccc12.[Li] [Compound 6]: 47.4

---

# System: metabolism of nitrogen oxide
# Protocol: Morphine abstinence model: nitrites and nitrates NOX− in blood plasma, liver and brain
# Assay type: in vivo, rats Wistar
# Settings: morphinized rats then compound 20.0 mg/kg intramuscularly
Test Readout: Nitrites in brain, Cortex of cerebrum, Control + Morphine + compound

O=c1[nH][nH]c(=O)c2nccnc12.[Li]: 4.91 ± 0.32 nmol/mg of protein
O=c1[nH][nH]c(=O)c2ncccc12.[Li]: 5.12 ± 0.18 nmol/mg of protein
Nc1cccc2c(=O)[nH][nH]c(=O)c12.[Na]: 4.72 ± 0.37 nmol/mg of protein
O=c1[nH][nH]c(=O)c2c(Br)ncnc12.[K]: 4.77 ± 0.28 nmol/mg of protein

---

Attribute: Activity of NOC, Mesencephalon, Control + Compound
# System: synthase of nitrogen oxide (NOC)
# Protocol: Morphine abstinence model: activity of synthase of nitrogen oxide (radiometric, [3H]L-citrulline)
# Type: in vivo, rats Wistar
# Settings: compound alone 20.0 mg/kg intramuscularly
Test Readout: Activity of NOC, Mesencephalon, Control + Compound

O=c1[nH][nH]c(=O)c2c(Br)ncnc12.[K]: 2.62 ± 0.27 pmol/min/mg of protein
Nc1cccc2c(=O)[nH][nH]c(=O)c12.[Na]: 2.60 ± 0.29 pmol/min/mg of protein
O=c1[nH][nH]c(=O)c2ncccc12.[Li]: 2.84 ± 0.31 pmol/min/mg of protein
O=c1[nH][nH]c(=O)c2nccnc12.[Li]: 2.65 ± 0.43 pmol/min/mg of protein

---

# Protocol: Polarographic study of electrochemical reduction (electrochemical activity)
# Format: physicochemical
# Settings: pH 7.0; 37° C.; forward trace; average for the group
Test Readout: −E1/2, V (half-wave potential vs SCE)

Nc1ncc2c(=O)[nH][nH]c(=O)c2n1 [Compound 36]: 0.08 ± 0.02 V
O=c1[nH][nH]c(=O)c2ncccc12.[Na] [Compound 7]: 0.11 ± 0.02 V
O=c1[nH][nH]c(=O)c2nccnc12.[Li] [Compound 25]: 0.16 ± 0.02 V
O=c1[nH][nH]c(=O)c2ncncc12.[Li] [Compound 35]: 0.08 ± 0.02 V
O=c1[nH]n([C@@H]2O[C@H](CO)[C@@H](O)[C@H]2O)c(=O)c2ncnc(O)c12.[Na] [Compound 33]: 0.08 ± 0.02 V

---

# System: indicator enzymes in blood plasma
# Protocol: Morphine abstinence model: indicator enzymes AST, ALT, γ-GTP in blood plasma
# Format: in vivo, rats Wistar
# Settings: morphinized rats then compound 20.0 mg/kg intramuscularly
# Procedure: The experiments were carried out on rats in series of 7 animals on each compound according to the invention. Non-morphinized animal with not administered with compounds according to the invention were used as a control group. […] Then the rats were decapitated, the blood from somnolent arteries was collected in test tubes with solution EDTA as an anticoagulant, centrifuged at 1500 g for 15 minutes at 4° C. […] The activity of AST, ALT and γ-GTP was determined by means of diagnostic sets DiaSys, Germany.
Attribute: ALT, Ci, mE/l, control + Morphine + Compound
Test Readout: ALT, Ci, mE/l, control + Morphine + Compound (mE/l)

O=c1[nH][nH]c(=O)c2ncccc12.[Li]: 122.44
O=c1[nH][nH]c(=O)c2nccnc12.[Li]: 121.96
Nc1cccc2c(=O)[nH][nH]c(=O)c12.[Na]: 121.08
O=c1[nH][nH]c(=O)c2c(Br)ncnc12.[K]: 120.84

---

# Protocol: Polarographic study of electrochemical reduction (electrochemical activity)
# Format: physicochemical
# Settings: pH 7.0; 37° C.; 9·10^−4 M; forward trace; average for the group
Attribute: i, mkA (polarographic wave current)
Test Readout: i, mkA (polarographic wave current) (mkA)

O=c1[nH]n([C@@H]2O[C@H](CO)[C@@H](O)[C@H]2O)c(=O)c2nc(O)cnc12.[Na].[Na] [Compound 23]: 0.32
O=c1[nH]n([C@@H]2O[C@H](CO)[C@@H](O)[C@H]2O)c(=O)c2ncnc(O)c12.[Na] [Compound 33]: 0.30
Nc1ncc2c(=O)[nH][nH]c(=O)c2n1 [Compound 36]: 0.30
COP(=O)(OC)C(C)(C)CC(C)=O [dimephosphon, reference compound]: 0.10
O=c1[nH][nH]c(=O)c2ncccc12.[Na] [Compound 7]: 0.26
Nc1cccc2c(=O)[nH][nH]c(=O)c12.[Na] [Compound 15]: 0.23
O=c1[nH][nH]c(=O)c2ncncc12.[Li] [Compound 35]: 0.30
O=C([O-])c1ccc2c(=O)[nH][nH]c(=O)c2c1.O=C([O-])c1ccc2c(=O)[nH][nH]c(=O)c2c1.[Na+].[Na+] [Compound 18]: 0.23
O=c1[nH][nH]c(=O)c2nccnc12.[Li] [Compound 25]: 0.32

---

Attribute: −E1/2, V (half-wave potential vs SCE)
# Protocol: Polarographic study of electrochemical reduction (electrochemical activity)
# Type: physicochemical
# Settings: pH 7.2; 37° C.; forward trace; average for the group
Test Readout: −E1/2, V (half-wave potential vs SCE) (V)

Nc1cccc2c(=O)[nH][nH]c(=O)c12.[Na] [Compound 15]: 0.09
O=C([O-])c1ccc2c(=O)[nH][nH]c(=O)c2c1.O=C([O-])c1ccc2c(=O)[nH][nH]c(=O)c2c1.[Na+].[Na+] [Compound 18]: 0.09
O=c1[nH]n([C@@H]2O[C@H](CO)[C@@H](O)[C@H]2O)c(=O)c2nc(O)cnc12.[Na].[Na] [Compound 23]: 0.19
O=c1[nH][nH]c(=O)c2nccnc12.[Li] [Compound 25]: 0.19
COP(=O)(OC)C(C)(C)CC(C)=O [dimephosphon, reference compound]: 0.17
O=c1[nH][nH]c(=O)c2ncccc12.[Na] [Compound 7]: 0.11

---

# Tested on: plasma hemostasis
# Protocol: Partial activated thromboplastin time (PATT) after intravenous administration
# Assay type: in vivo, rabbit
# Settings: dose 15.0 mg/kg intravenously
Attribute: T, s after 120 minutes (PATT)
Test Readout: T, s after 120 minutes (PATT) (s)

O=c1[nH][nH]c(=O)c2c(Br)ncnc12.[K] [Compound 37]: 36.9
Nc1cnc2c(=O)n([C@@H]3O[C@H](CO)[C@@H](O)[C@H]3O)[nH]c(=O)c2n1.[Na] [Compound 21]: 37.0
Nc1cccc2c(=O)[nH][nH]c(=O)c12.[Na] [Compound 15]: 37.0
Nc1ccnc2c(=O)n([C@@H]3O[C@H](CO)[C@@H](O)[C@H]3O)[nH]c(=O)c12 [Compound 2]: 37.0

---

# Test system: thymus
# Protocol: Morphine abstinence model: thymus condition
# Type: in vivo, rats
# Settings: morphinized rats then compound
# Protocol: The effect of the compounds according to the invention on the condition of the thymus of the rats was also investigated: a control group, an experimental group of morphinized animals and an experimental group of animals were first morphinized and then injected with the compounds according to the invention. The experiment was carried out similarly to that described above.
Test Readout: Nitrites, thymus Supernatant, Administration of morphine and compound

O=c1[nH][nH]c(=O)c2ncccc12.[Li]: 0.419 ± 0.02 nmol/mg of protein
Nc1cccc2c(=O)[nH][nH]c(=O)c12.[Na]: 0.383 ± 0.02 nmol/mg of protein
O=c1[nH][nH]c(=O)c2nccnc12.[Li]: 0.396 ± 0.02 nmol/mg of protein
O=c1[nH][nH]c(=O)c2c(Br)ncnc12.[K]: 0.387 ± 0.01 nmol/mg of protein

src = patent US20070166547A1
